- target-system: Heat shock protein HSP90 (Homo sapiens, UniProt P07900+P08238)
- test-protocol: Concentration required to inhibit biotin-GM binding to recombinant heat shock protein 90(rHsp90)
- Format: protein assay
property-name: IC50 (µM)

CO[C@H]1/C=C\C=C(/C)C(=O)NC2=CC(=O)C(NC(=O)c3ccc(CN4CCCCC4)cc3)=C(C[C@@H](C)C[C@H](OC)[C@H](O)[C@@H](C)/C=C(\C)[C@@H]1OC(N)=O)C2=O	2.5
CO[C@H]1/C=C\C=C(/C)C(=O)NC2=CC(=O)C(NC(=O)c3cccs3)=C(C[C@@H](C)C[C@H](OC)[C@H](O)[C@@H](C)/C=C(\C)[C@@H]1OC(N)=O)C2=O	2
COc1cccc(C(=O)NC2=C3C[C@@H](C)C[C@H](OC)[C@H](O)[C@@H](C)/C=C(\C)[C@H](OC(N)=O)[C@@H](OC)/C=C\C=C(/C)C(=O)NC(=CC2=O)C3=O)c1	1.3
CO[C@H]1/C=C\C=C(/C)C(=O)NC2=CC(=O)C(NC(=O)c3ccc(CN4CCN(c5ccc(Cl)cc5)CC4)cc3)=C(C[C@@H](C)C[C@H](OC)[C@H](O)[C@@H](C)/C=C(\C)[C@@H]1OC(N)=O)C2=O	1
CO[C@H]1/C=C\C=C(/C)C(=O)NC2=CC(=O)C(NC(=O)OCC(C)C)=C(C[C@@H](C)C[C@H](OC)[C@H](O)[C@@H](C)/C=C(\C)[C@@H]1OC(N)=O)C2=O	4

---

- target-system: Heat shock protein HSP90 (Homo sapiens, UniProt P07900+P08238)
- test-protocol: Concentration required to inhibit Bis-ANS activity by recombinant heat shock protein 90 (rHSP90) conformational assay
property-name: IC50 (nM)

CO[C@H]1/C=C\C=C(/C)C(=O)NC2=CC(=O)C(NC(=O)c3ccccc3)=C(C[C@@H](C)C[C@H](OC)[C@H](O)[C@@H](C)/C=C(\C)[C@@H]1OC(N)=O)C2=O	3000
CO[C@H]1/C=C\C=C(/C)C(=O)NC2=CC(=O)C(NC(=O)c3cccs3)=C(C[C@@H](C)C[C@H](OC)[C@H](O)[C@@H](C)/C=C(\C)[C@@H]1OC(N)=O)C2=O	3000
CO[C@H]1/C=C\C=C(/C)C(=O)NC2=CC(=O)C(c3ccccc3)=C(C[C@@H](C)C[C@H](OC)[C@H](O)[C@@H](C)/C=C(\C)[C@@H]1OC(N)=O)C2=O	3000

Values were extracted from ChEMBL document CHEMBL1149179.
